Attribute: Caco-2 B–A
- Tested on: Caco-2
- protocol: Caco-2 permeability assay
- Type: in vitro ADME
- particulars: basolateral to apical
recorded-metric: Caco-2 B–A (cm/s ×10^6)

                                   compound  numeric_result
0  Cc1ccc(Nc2c(-c3ccc(F)cc3)nc3n2CCNC3)cc1 [Compound 31]            2.36
1  Cc1ccc(Nc2c(-c3ccc(F)cc3)nc3n2CCNC3(C)C)cc1 [Compound 35]            6.96
2  CC1(C)c2nc(-c3ccc(F)cc3)c(Nc3ccc(F)c(F)c3)n2CCN1C(=O)CN [Compound 24]             1.3
3  CC(C)(N)C(=O)N1CCn2c(nc(-c3ccc(F)cc3)c2Nc2ccc(F)cc2)C1(C)C [Compound 28]            0.97
4  Cc1ccc(Nc2c(-c3ccc(F)cc3)nc3n2CC(=O)NC3)cc1 [Compound 32]           14.37
5  Cc1ccc(Nc2c(-c3ccc(F)cc3)nc3n2CCN(C(=O)C(C)(C)N)C3(C)C)cc1 [Compound 29]            2.37
6  CC1(C)c2nc(-c3ccc(F)cc3)c(Nc3ccc(F)cc3)n2CCN1C(=O)CN [Compound 22]            2.99
